- assay-comment: NCI Yeast Anticancer Drug Screen. Data for the mlh1 rad18 strain (AID 175)
- condition-summary: S. cerevisiae mlh1 rad18 strain growth inhibition; at 50.0 µM
Compounds without any hit were thinned out: in the full panel of roughly 79,000, 15% have a hit. The source made the active and inactive calls. Rule as the data show it: active = growth inhibition above about 70%; inactive = the rest.
Output constraint: value belongs to active, inactive

[in] Which outcome was entered for the compound CC(C)CCCC(C)C1CCC2C(CC(=O)O)C(C3(C)CCC(O)CC3=O)CCC2(C)C1 (configuration not stated) in this test?
[out] inactive

[in] Moving on to the next compound: COC(=O)C(CC(=O)c1cc2c(cc1I)OCO2)Cc1cc(OC)c(OC)c(OC)c1I (configuration not stated)
[out] inactive

[in] Moving on to the next compound: N#CCC(=O)NCc1ccncc1
[out] inactive

[in] Moving on to the next compound: CCOc1cc(CC[N+](C)(C)C)c2c(ccc3ccc(OC)c(OC)c32)c1OC
[out] inactive

[in] Moving on to the next compound: N#C/C(=C\c1cccc(N)c1)c1ccccc1
[out] active

[in] Moving on to the next compound: O=C1C=C(Nc2ccc3ccccc3c2[N+](=O)[O-])c2ccccc2C1=O
[out] inactive

[in] Moving on to the next compound: COc1ccc(OC)c(NC(=O)Nc2cccc(C(C)=O)c2)c1
[out] inactive

[in] Moving on to the next compound: COc1ccccc1NCC(=O)Nn1c(C)nc2ccc(S(=O)(=O)Nc3ccccc3OC)cc2c1=O
[out] inactive

[in] Moving on to the next compound: O=C1CSc2nc3ccc(Br)cc3c(=O)n21
[out] inactive

[in] Moving on to the next compound: CC1OC(CO)C2OC(C)OCC2O1 (configuration not stated)
[out] inactive

[in] Moving on to the next compound: CC(=O)OC1CC2CC1C1C=CCC21 (configuration not stated)
[out] inactive

[in] Moving on to the next compound: CSC1=NC=C(C#N)C2=NC(c3ccc(Cl)cc3)NN12 (configuration not stated)
[out] inactive

[in] Moving on to the next compound: COC(=O)c1ccc(N(C)CCC(=O)COC(C)=O)cc1
[out] inactive
